target: human AT2R fused to Cb23 (Homo sapiens, UniProt P50052)
Sequence (P50052 whole entry, looked up, the tested form may be a part): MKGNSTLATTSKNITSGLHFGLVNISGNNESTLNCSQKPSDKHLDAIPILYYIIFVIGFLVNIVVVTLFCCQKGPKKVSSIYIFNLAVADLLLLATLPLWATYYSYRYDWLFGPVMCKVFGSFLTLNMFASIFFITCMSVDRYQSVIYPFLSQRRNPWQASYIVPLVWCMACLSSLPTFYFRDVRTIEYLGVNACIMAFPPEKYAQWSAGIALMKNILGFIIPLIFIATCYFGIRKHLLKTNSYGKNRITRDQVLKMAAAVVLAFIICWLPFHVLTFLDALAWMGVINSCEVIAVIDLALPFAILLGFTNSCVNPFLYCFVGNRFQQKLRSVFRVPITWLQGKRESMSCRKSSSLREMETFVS
measurementNotes: Radioligand binding assay, displacement of 125I-[Sar1, Ile8]-Angiotensin II, hAT2R Cb23
measurementSetup: displacement of 125I-[Sar1, Ile8]-Angiotensin II, human AT2R fused to Cb23, HEK-293 cell membrane preparations; read-out: Binding affinity on hAT2R_Cb23 IC50
pIC50: −log10 of the molar value.
Please use YES whenever pIC50 is not below 5, and NO whenever it is.

CCc1nc2ccc([N+](=O)[O-])cc2c(=O)n1CC1CCN(c2ccccc2-c2nn[nH]n2)CC1 :: NO
c1ccc(N2CCN(Cc3nc4ccccc4s3)CC2)c(-c2nn[nH]n2)c1 :: NO
CCc1nc2ccc(NC(=O)C3CC3)cc2c(=O)n1CC1CCN(c2ccccc2-c2nn[nH]n2)CC1 :: NO

Answer whether pIC50 of CC(C)Cc1cc(F)c(-c2nn[nH]n2)c(N2CCN(Cc3ncccc3F)CC2)c1 is greater than or equal to 5.
YES

Answer whether pIC50 of CC(C)Cc1ccc(-c2nn[nH]n2)c(N2CCN(Cc3cccnn3)CC2)c1F is greater than or equal to 5.
YES

###

target: human AT2R fused to Cb23 (Homo sapiens)
measurementNotes: Radioligand binding assay, displacement of 125I-[Sar1, Ile8]-Angiotensin II, hAT2R Cb23
measurementSetup: displacement of 125I-[Sar1, Ile8]-Angiotensin II, human AT2R fused to Cb23, HEK-293 cell membrane preparations; read-out: Binding affinity on hAT2R_Cb23 IC50
measureName: IC50 (µM)
Give bare numbers, in µM.

The following molecules have reported results that may help.
CC(C)Cc1ccc(-c2nn[nH]n2)c(N2CCN(Cc3ccnn3C)CC2)c1 [Compound A-84] :: 2.37
CC(C)Cc1cc(F)c(-c2nn[nH]n2)c(N2C[C@H](C)N(Cc3cccnn3)[C@@H](C)C2)c1 [Compound A-187] :: 0.00726

For each of the molecules below, state IC50.
1. CC(C)Cc1ccc(-c2nn[nH]n2)c(N2CCN(Cc3nncn3C)CC2)c1 [Compound A-94]
2. Cc1ccn2c(=O)cc(CN3CCN(c4cc(CC(C)C)ccc4-c4nn[nH]n4)CC3)nc2c1 [Compound A-72]

[4.77, 8.39]

###

Reported values: IC50 for human AT1R (Homo sapiens (Human), UniProt P30556), one per item.
Numbers only, in µM.

Cc1cnc(CN2CCN(c3c(-c4nn[nH]n4)ccc(CC(C)C)c3F)CC2)s1 :: 55.2
CC(C)Cc1cc(F)c(-c2nn[nH]n2)c(N2CCN(Cc3ccc(C#N)cn3)CC2)c1 :: 6.74
CC(C)Cc1ccc(-c2nn[nH]n2)c(N2CCN(Cc3ccc(C(F)(F)F)cn3)CC2)c1 :: 45

For each of the molecules below, state IC50.
1. CC(C)Cc1cc(F)c(-c2nn[nH]n2)c(N2CCN(Cc3ccccn3)[C@@H](C)C2)c1
2. CCS(=O)(=O)NC(=O)c1ccc(C2CC2)cc1N1CCN(Cc2nc3ccccc3s2)CC1
3. CCS(=O)(=O)NC(=O)c1ccc(OC2CC2)cc1N1CCN(Cc2nc3ccccc3s2)CC1
4. CCS(=O)(=O)NC(=O)c1ccc(OC(C)C)cc1N1CCN(Cc2nc3ccccc3s2)CC1

17.5
31.4
16.5
36.6

Form field - read-out: IC50; system: human AT1R (Homo sapiens (Human), UniProt P30556); submitted item: CCc1ccc(-c2nn[nH]n2)c(N2CCN(Cc3nc4ccccc4s3)CC2)c1
Sequence (P30556 whole entry): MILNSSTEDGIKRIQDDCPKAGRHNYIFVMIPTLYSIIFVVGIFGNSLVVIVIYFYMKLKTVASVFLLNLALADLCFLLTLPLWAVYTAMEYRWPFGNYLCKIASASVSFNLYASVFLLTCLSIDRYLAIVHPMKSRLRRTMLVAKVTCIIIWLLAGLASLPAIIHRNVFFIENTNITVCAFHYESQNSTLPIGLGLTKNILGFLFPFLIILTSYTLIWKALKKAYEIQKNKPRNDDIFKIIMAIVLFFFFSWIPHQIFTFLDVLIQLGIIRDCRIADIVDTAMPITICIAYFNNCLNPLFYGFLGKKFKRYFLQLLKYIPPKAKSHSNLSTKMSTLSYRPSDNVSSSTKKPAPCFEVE
30

###

Answer each item with its documented fraction unbound.
measurementNotes: Plasma protein binding (equilibrium dialysis), human
Type: in vitro ADME
measurementSetup: equilibrium dialysis, read-out: PPB (%), human (converted)
Give bare numbers.

The following compounds have reported results that may help.
CC(C)Cc1cc(F)c(-c2nn[nH]n2)c(N2CCN(Cc3cccnn3)C(C)C2)c1 (centres unmarked) :: 0.05
CCC1CN(Cc2cccnn2)CCN1c1cc(CC(C)C)cc(F)c1-c1nn[nH]n1 (centres unmarked) :: 0.03
CCC1CN(c2cc(CC(C)C)cc(F)c2-c2nn[nH]n2)CCN1Cc1cccnn1 (centres unmarked) :: 0.04

For each of the compounds below, state fraction unbound.
1. CC(C)Cc1cc(F)c(-c2nn[nH]n2)c(N2CC(C)N(Cc3cccnn3)CC2C)c1 (centres unmarked)
2. CC(C)Cc1cc(F)c(-c2nn[nH]n2)c(N2CCN(Cc3ccccn3)[C@@H](C)C2)c1
3. CC(C)Cc1cc(F)c(-c2nn[nH]n2)c(N2CCN(Cc3cccnn3)[C@@H](C)C2)c1
4. CC(C)Cc1ccc(-c2nn[nH]n2)c(N2CCN(Cc3cccnn3)CC2)c1

1: 0.06; 2: 0.004; 3: 0.026; 4: 0.05

###

measurementNotes: Metabolic stability in hepatocytes, rat
Type: in vitro ADME
measurementSetup: hepatocytes (cryopreserved), read-out: Rat Clint (μL/min/10^6 cells)
Response field label takes 1 (yes) when hepatocyte CLint is strictly below 2 µL/min/1e6 cells and 0 (no) in all other cases.

Report whether reported hepatocyte CLint is lower than 2 µL/min/1e6 cells (strictly) for CCC1CN(c2cc(CC(C)C)cc(F)c2-c2nn[nH]n2)CCN1Cc1cccnn1 (stereo not shown)
1 (yes)

Report whether reported hepatocyte CLint is lower than 2 µL/min/1e6 cells (strictly) for CC(C)Cc1cc(F)c(-c2nn[nH]n2)c(N2CCN(Cc3cccnn3)[C@@H](C)C2)c1
0 (no)

Report whether reported hepatocyte CLint is lower than 2 µL/min/1e6 cells (strictly) for CC(C)Cc1cc(F)c(-c2nn[nH]n2)c(N2CC(C)N(Cc3cccnn3)CC2C)c1 (stereo not shown)
0 (no)

Report whether reported hepatocyte CLint is lower than 2 µL/min/1e6 cells (strictly) for CC(C)Cc1cc(F)c(-c2nn[nH]n2)c(N2CCN(Cc3ccccn3)[C@@H](C)C2)c1
0 (no)

Report whether reported hepatocyte CLint is lower than 2 µL/min/1e6 cells (strictly) for CCC1CN(Cc2cccnn2)CCN1c1cc(CC(C)C)cc(F)c1-c1nn[nH]n1 (stereo not shown)
1 (yes)

###

target: human AT1R (Homo sapiens (Human))
measurementNotes: Counterscreen radioligand binding assay, displacement of 125I-[Sar1, Ile8]-Angiotensin II, hAT1R WT
measurementSetup: 125I-[Sar1, Ile8]-Ang II, compound at 10 μM, semi-quantitative score, read-out: % Displaced radioligand at 10 μM
measureName: inhibition at 10 µM

CC(C)Cc1cc(F)c(-c2nn[nH]n2)c(N2CCN(Cc3cc(Cl)ccn3)CC2)c1 [Compound A-191] :: < 30%

For each of the compounds below, state inhibition at 10 µM.
1. CC(C)Cc1cc(F)c(-c2nn[nH]n2)c(N2CC(C)N(Cc3cccnn3)CC2C)c1 (centres unmarked) [Compound A-183]
2. CC(C)Cc1cc(F)c(-c2nn[nH]n2)c(N2CCN(Cc3ncc(F)cc3Cl)CC2)c1 [Compound A-206]
3. CC(C)Cc1ccc(-c2nn[nH]n2)c(N2CCN(Cc3nncn3C)CC2)c1 [Compound A-94]

["< 30%", "< 30%", "30 to 50%"]

###

measurementNotes: Liver microsomal stability, dog
Type: in vitro ADME
measurementSetup: male, Beagle, pH 7.4, liver microsomes
Answer each item with its documented microsomal CLint at 1 µM.

Cc1ccnc(CN2CCN(c3cc(CC(C)C)cc(F)c3-c3nn[nH]n3)C[C@@H]2C)c1 [Compound A-229] :: < 11.7 µL/min/mg

For each of the compounds below, state microsomal CLint at 1 µM.
1. CC(C)Cc1cc(F)c(-c2nn[nH]n2)c(N2CCN(Cc3ccccn3)[C@@H](C)C2)c1 [Compound A-217]
2. Cc1cccnc1CN1CCN(c2cc(CC(C)C)cc(F)c2-c2nn[nH]n2)C[C@@H]1C [Compound A-228]
3. COc1ccnc(CN2CCN(c3cc(CC(C)C)cc(F)c3-c3nn[nH]n3)C[C@@H]2C)c1 [Compound A-227]

["< 11.5 µL/min/mg", "< 11.7 µL/min/mg", "< 11.7 µL/min/mg"]

Would you kindly share the measured microsomal CLint at 1 µM for CC(C)Cc1cc(F)c(-c2nn[nH]n2)c(N2CCN(Cc3cccnn3)[C@@H](C)C2)c1 [Compound A-174] ?
< 11.7 µL/min/mg

###

target: human AT2R fused to Cb23 (Homo sapiens, UniProt P50052)
measurementNotes: Radioligand binding assay, displacement of 125I-[Sar1, Ile8]-Angiotensin II, hAT2R Cb23
measurementSetup: displacement of 125I-[Sar1, Ile8]-Angiotensin II, human AT2R fused to Cb23, HEK-293 cell membrane preparations; read-out: Binding affinity on hAT2R_Cb23 IC50
Description: All synthesized ligands were evaluated in a radioligand assay by displacing ^125I-[Sar1, Ile8]-Angiotensin II (Perkin Elmer, NEX248050UC) from human AT2R fused to Cb23 or human/rodent/cynomolgus/minipig/dog WT AT2R in HEK-293 cells membrane preparations, using C21 (Vicore Pharma) and Angiotensin II (endogenous ligand) as reference. The affinity was determined using an eight-point dose-response curve, each point performed in duplicates. […]
Recorded IC50 determines the group label, using label 0 = under 600 nM, label 1 = from 600 nM up to 7000 nM, label 2 = 7000 nM and over

Some solved cases for reference:
CC(C)Cc1cc(F)c(-c2nn[nH]n2)c(N2CCC(Cc3ccccn3)CC2)c1 :: label 0
CCc1nc2ccccc2c(=O)n1CC1CCN(c2ccccc2C(=O)NS(=O)(=O)CC)CC1 :: label 2
CN1CCN(c2ccc(-c3nn[nH]n3)c(N3CCN(Cc4nc5ccccc5s4)CC3)c2)CC1 :: label 2

For the next question, use this molecule.
Where would CC(C)Cc1cc(F)c(-c2nn[nH]n2)c(N2CCN(Cc3ccccn3)[C@@H](C)C2)c1 land among the classes by reported IC50?
label 0
